- Test system: HCT-15 colon
- testDescription: NCI-60 one-dose screen, 48 h (100 = growth as untreated, 0 = no growth, -100 = all killed)
- runConditions: 10 µM
Compounds without any hit were thinned out: in the full panel of roughly 83,000, 20% have a hit.
Measured growth, listed per entry.
readoutType: growth (%)

givensmiles=Nc1nc(-c2ccc(Cl)cc2)cc(-c2cc3ccccc3oc2=O)n1 readouttype=growth measvalue=102
givensmiles=COc1ccc(C(=O)c2cc3c(OC)c(OC)c(OC)cc3[nH]2)cc1 readouttype=growth measvalue=36.1
givensmiles=CC1=NN(C(=O)c2nn(-c3ccc(Cl)cc3)cc2O)C(=O)C1 readouttype=growth measvalue=34.5
givensmiles=CCOC(=O)c1sc2ncnc(Nc3ccc(NC(=O)Nc4ccc(Cl)cc4)cc3)c2c1C readouttype=growth measvalue=33.9
givensmiles=C=C(C)[C@@H]1CC[C@]2(COCCC#N)CC[C@]3(C)[C@H](CC[C@@H]4[C@@]5(C)Cc6c([nH]c7ccccc67)C(C)(C)[C@@H]5CC[C@]43C)[C@@H]12 readouttype=growth measvalue=102

----------
- System: LOX IMVI melanoma
- testDescription: NCI-60 one-dose screen, 48 h (100 = growth as untreated, 0 = no growth, -100 = all killed)
- runConditions: 10 µM
Compounds without any hit were thinned out: in the full panel of roughly 83,000, 20% have a hit. The source made the active and inactive calls. Rule for the calls: active = growth percent below 10; inactive = the rest.
readoutType: growth

molecule=Cc1cc(CCNC=O)c(C)c2c1sc1ccccc12 readouttype=growth measvalue="98.4% (inactive)"
molecule=Oc1ccc(-c2[nH]c3ccccc3c2-c2nc3ccccc3o2)cc1 readouttype=growth measvalue="34.6% (inactive)"
molecule=CCn1c(SC/C(=N/O)c2ccccc2)nnc1-c1ccccc1 readouttype=growth measvalue="104% (inactive)"
molecule=Cc1ccc(NC(=S)NNC(=S)Nc2ccc(C)cc2)cc1 readouttype=growth measvalue="75.3% (inactive)"
molecule="CCCN1CN2C(=O)N3CN(CCC)CN4C(=S)N(C1)C2C34 (stereo not drawn)" readouttype=growth measvalue="103% (inactive)"
molecule="CC(C)[N+]1(C)C2CC[C@@H]1CC(OC(=O)C(CO)c1ccccc1)C2 (stereo partly drawn)" readouttype=growth measvalue="94.5% (inactive)"
molecule=CCOC(=O)CSc1nc(-c2cc(OC)ccc2OC)cc(-c2ccc(OC)cc2)c1C#N readouttype=growth measvalue="85.5% (inactive)"
molecule=O=C(Nc1cccc2c1CCCC2)c1cc2ccccc2cc1O readouttype=growth measvalue="27.2% (inactive)"
molecule=O=c1cn[nH]c2ccc(Br)cc12 readouttype=growth measvalue="97.2% (inactive)"
molecule=COc1ccc(/C=C2/SC(=S)NC2=O)c(OC)c1OC readouttype=growth measvalue="65.9% (inactive)"
molecule=Cc1c(Cl)cccc1NC(=O)CCCl readouttype=growth measvalue="101% (inactive)"
molecule=Cc1ccc(NCCNCC(C)(C)O)c2c(=O)c3ccc(Cl)cc3sc12 readouttype=growth measvalue="-92.6% (active)"
molecule=O=C1/C=C/[C@@H](O)[C@@H]2C[C@@H](O)C[C@H]2/C=C/CCC[C@@H](C(F)(F)F)O1 readouttype=growth measvalue="71.3% (inactive)"
molecule=CCOC(=O)c1sc2ncnc(Nc3ccc4c(cnn4C(=O)Nc4ccc(C)c(Cl)c4)c3)c2c1C readouttype=growth measvalue="96% (inactive)"
molecule=S=c1cnc2ccccc2[nH]1 readouttype=growth measvalue="94.3% (inactive)"
molecule="N#CC1=CC2CN(Cc3ccccc3)C1C1C(=O)N(c3ccccc3)C(=O)C21 (stereo not drawn)" readouttype=growth measvalue="89.2% (inactive)"
molecule=O=C(CCc1nnc2sc(-c3cc(O)c(O)c(O)c3)nn12)c1nc2ccccc2[nH]1 readouttype=growth measvalue="98.3% (inactive)"
molecule=O=C(Nc1ccc(NS(=O)(=O)c2ccc(F)cc2)cc1)C12CC3CC(CC(C3)C1)C2 readouttype=growth measvalue="92.2% (inactive)"
molecule=CCN(CC)CCCOc1cccc2c1C(=O)c1cccc(OCCCN(CC)CC)c1C2=O readouttype=growth measvalue="16.9% (inactive)"
molecule=O=C(CSc1nccc(Nc2cccc3ccccc23)n1)c1ccc(Cl)cc1 readouttype=growth measvalue="77.6% (inactive)"
molecule=CCOC(=O)c1cc(C(=O)c2ccc(OC)c(OC)c2)n2ccncc12 readouttype=growth measvalue="77.7% (inactive)"
molecule=CCOC(=O)Cn1c(=O)c2sc3ncccc3c2n2nnc(-c3ccccc3)c12 readouttype=growth measvalue="97.4% (inactive)"
molecule=O=C1Cc2cc(CCN3CCN(c4nsc5ccccc45)CC3)c(Cl)cc2N1 readouttype=growth measvalue="96.8% (inactive)"
molecule="CCN(CC)c1ccc(/C=C2\\SC(=O)C(Nc3nnc(-c4cccnc4SCc4ccccc4)o3)C2=O)cc1 (stereo not drawn)" readouttype=growth measvalue="42.3% (inactive)"
molecule=CC(=O)/C(=C/c1ccc(Br)cc1)C(=O)c1ccccc1 readouttype=growth measvalue="-61.9% (active)"
molecule="COc1ccc(C2CC(c3cc(OC)c(OC)c(OC)c3)=NN2)cc1 (stereo not drawn)" readouttype=growth measvalue="43.9% (inactive)"
molecule=COc1ccc(C(=O)N/N=C/c2cc(C(F)(F)F)ccc2Cl)cc1 readouttype=growth measvalue="92.4% (inactive)"
molecule=CNC(=O)c1cc(Oc2ccc3c(c2)sc2nc(-c4ccc(N)cc4)cn23)ccn1 readouttype=growth measvalue="22.7% (inactive)"
